Please respond with reported EC50, CreLuc assay, 0.5% hP for every item in the list.
Biological target: T1, human GIP receptor (human, UniProt P48546 22-466)
T1 sequence (looked up): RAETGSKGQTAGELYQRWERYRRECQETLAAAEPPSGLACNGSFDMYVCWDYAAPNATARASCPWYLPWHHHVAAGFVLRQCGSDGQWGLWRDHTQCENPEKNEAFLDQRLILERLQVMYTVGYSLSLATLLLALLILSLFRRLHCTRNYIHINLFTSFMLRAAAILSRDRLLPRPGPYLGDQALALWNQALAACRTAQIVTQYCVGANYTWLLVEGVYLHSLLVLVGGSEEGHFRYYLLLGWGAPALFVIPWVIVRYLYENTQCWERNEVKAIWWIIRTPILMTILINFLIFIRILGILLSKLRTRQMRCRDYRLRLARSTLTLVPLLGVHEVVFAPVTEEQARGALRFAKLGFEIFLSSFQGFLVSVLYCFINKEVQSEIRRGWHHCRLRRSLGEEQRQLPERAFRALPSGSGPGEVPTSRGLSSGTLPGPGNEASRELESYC
Experiment: cell-based or functional assay
Starred links: 1 amine or outer side, 2 acyl side, 3 side chain; linkers in the order of their positions; H or OH if unused. Non-standard residues stand in square brackets, D forms with d. Groups on a side chain read outwards from the residue. No end group written: not given here. *: point of attachment. C18 diacid = O=C(O)CCCCCCCCCCCCCCCCC(=O)*; γGlu = O=C(O)[C@H](CCC(=O)[*:2])N[*:1]; εLys = N[C@@H](CCCCN[*:1])C(=O)[*:2]; AEEA = NCCOCCOCC(=O)O; Aib = CC(C)(N)C(=O)O
One number for each entry, in nM.

- Binder: "YXEGTFTSDYSIXLEKQAQXAFVEWLIKGGPSSYVSIRHYYNWLTRQRY (Aib at 2, 13, 20; K28 side chain: C20DA-gGlu-gGlu-gGlu-gGlu-gGlu-gGlu-eLys; C-terminal NH2) [Compound 9]"
  EC50, CreLuc assay, 0.5% hP [nM]: 0.21
- Binder: "Y[Aib]EGTFTSDYSI[Aib]LEKQAQ[Aib]EFVEWLIK([AEEA-AEEA-γGlu-γGlu-γGlu-C18 diacid])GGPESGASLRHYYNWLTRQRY-NH2 (also: TFA salt) [Compound 81]"
  EC50, CreLuc assay, 0.5% hP [nM]: 0.27

Give EC50, CreLuc assay, 0.5% hP for each listed item.
1. Y[Aib]EGTFTSDYSI[Aib]LEKQAQ[Aib]AFVQWLIK([εLys-γGlu-γGlu-γGlu-γGlu-γGlu-C18 diacid])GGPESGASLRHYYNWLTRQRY-NH2 (also: TFA salt) [Compound 60]
2. YXEGTFTSDYSIXLEKQAQXAFVEWLIKGGPSYYVSLRHYYNWLTRQRY (Aib at 2, 13, 20; K28 side chain: C20DA-gGlu-gGlu-gGlu-gGlu-gGlu-gGlu-eLys; C-terminal NH2) [Compound 80]

0.33
0.79

So, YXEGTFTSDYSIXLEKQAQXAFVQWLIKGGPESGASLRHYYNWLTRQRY (Aib at 2, 13, 20; K28 side chain: C20DA-gGlu-gGlu-gGlu-gGlu-gGlu; C-terminal NH2) [Compound 29] ? Its EC50, CreLuc assay, 0.5% hP was 0.23
